The origin of these recorded values is ChEMBL document CHEMBL1136711.

Quick note: these are pIC50 numbers for system: Collagenase 3 (Homo sapiens)
pIC50: −log10 of the molar value.

>  <STRUCTURE SMILES STRING>
COc1ccc(S(=O)(=O)N(Cc2ccccc2)c2c(C(=O)NO)cnc3ccc(Br)cc23)cc1

>  <pIC50>
8.22

$$$$
>  <STRUCTURE SMILES STRING>
COc1ccc(S(=O)(=O)N(Cc2ccccc2)c2c(C(=O)NO)cnc3ccc(C(F)(F)F)cc23)cc1

>  <pIC50>
8.15

$$$$
>  <STRUCTURE SMILES STRING>
CCCCOc1ccc(S(=O)(=O)N(C)c2c(C(=O)NO)cnc3c2c(C)nn3C)cc1

>  <pIC50>
8.52

$$$$
>  <STRUCTURE SMILES STRING>
CC#CCOc1ccc(S(=O)(=O)N(C)c2c(C(=O)NO)cnc3c(OC)cccc23)cc1

>  <pIC50>
8.05

$$$$
>  <STRUCTURE SMILES STRING>
C=Cc1cccc2c(N(C)S(=O)(=O)c3ccc(OC)cc3)c(C(=O)NO)cnc12

>  <pIC50>
8.30

$$$$
>  <STRUCTURE SMILES STRING>
CN(c1c(C(=O)NO)cnc2ccccc12)S(=O)(=O)c1ccc(Oc2ccncc2)cc1

>  <pIC50>
9.00

$$$$

====

# MEASUREMENT TARGET: Disintegrin and metalloproteinase domain-containing protein 17 (Homo sapiens, UniProt P78536)
# Sequence (P78536 whole entry, the tested form may be a part): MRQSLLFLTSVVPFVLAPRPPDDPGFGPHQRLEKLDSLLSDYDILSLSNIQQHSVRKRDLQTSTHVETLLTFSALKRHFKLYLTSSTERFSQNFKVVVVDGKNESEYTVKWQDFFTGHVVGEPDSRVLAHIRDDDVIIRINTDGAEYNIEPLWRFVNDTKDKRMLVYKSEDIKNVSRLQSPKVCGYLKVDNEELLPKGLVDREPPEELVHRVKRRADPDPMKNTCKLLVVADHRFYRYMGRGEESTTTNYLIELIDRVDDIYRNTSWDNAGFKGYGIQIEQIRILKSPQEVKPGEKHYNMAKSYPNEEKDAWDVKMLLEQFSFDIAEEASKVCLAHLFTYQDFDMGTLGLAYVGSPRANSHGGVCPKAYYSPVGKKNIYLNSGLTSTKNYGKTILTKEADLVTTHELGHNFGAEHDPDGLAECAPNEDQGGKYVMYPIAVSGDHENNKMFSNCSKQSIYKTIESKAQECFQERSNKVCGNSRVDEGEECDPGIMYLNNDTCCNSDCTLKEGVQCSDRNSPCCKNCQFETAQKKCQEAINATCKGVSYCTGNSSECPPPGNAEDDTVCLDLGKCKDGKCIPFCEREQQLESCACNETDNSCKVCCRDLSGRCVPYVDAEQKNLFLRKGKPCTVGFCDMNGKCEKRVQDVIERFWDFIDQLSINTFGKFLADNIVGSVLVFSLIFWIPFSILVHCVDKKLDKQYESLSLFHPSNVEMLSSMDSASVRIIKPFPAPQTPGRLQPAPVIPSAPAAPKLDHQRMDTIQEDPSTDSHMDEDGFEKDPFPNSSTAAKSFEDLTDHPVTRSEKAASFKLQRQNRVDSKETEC
pIC50: −log10 of the molar value.

>  <STRUCTURE SMILES STRING>
Cc1ccc(S(=O)(=O)N(Cc2cccnc2)c2c(C(=O)NO)cnc3cc(C(F)(F)F)ccc23)cc1

>  <CENSORING QUALIFIER>
<

>  <pIC50>
6.00

$$$$
>  <STRUCTURE SMILES STRING>
CCCCOc1ccc(S(=O)(=O)N(C)c2c(C(=O)NO)cnc3c2c(C)nn3C)cc1

>  <CENSORING QUALIFIER>
=

>  <pIC50>
7.07

$$$$
>  <STRUCTURE SMILES STRING>
COc1ccc(S(=O)(=O)N(Cc2ccccc2)c2c(C(=O)NO)cnc3ccc(C(F)(F)F)cc23)cc1

>  <CENSORING QUALIFIER>
<

>  <pIC50>
6.00

$$$$
>  <STRUCTURE SMILES STRING>
Cc1nn(C)c2ncc(C(=O)NO)c(N(C)S(=O)(=O)c3ccc(Oc4ccc(Cl)cc4)cc3)c12

>  <CENSORING QUALIFIER>
=

>  <pIC50>
6.45

$$$$
>  <STRUCTURE SMILES STRING>
Cc1nn(C)c2ncc(C(=O)NO)c(N(C)S(=O)(=O)c3ccc(F)cc3)c12

>  <CENSORING QUALIFIER>
<

>  <pIC50>
6.00

$$$$
>  <STRUCTURE SMILES STRING>
CC#CCOc1ccc(S(=O)(=O)N(C)c2c(C(=O)NO)cnc3onc(C)c23)cc1

>  <CENSORING QUALIFIER>
=

>  <pIC50>
8.22

$$$$
>  <STRUCTURE SMILES STRING>
O=C(NO)c1cnc2cc(C(F)(F)F)ccc2c1N(Cc1cccnc1)S(=O)(=O)c1ccc(-c2ccccc2)cc1

>  <CENSORING QUALIFIER>
=

>  <pIC50>
6.91

$$$$
>  <STRUCTURE SMILES STRING>
COc1ccc(S(=O)(=O)N(Cc2ccccc2)c2c(C(=O)NO)cnc3ccc(Br)cc23)cc1

>  <CENSORING QUALIFIER>
<

>  <pIC50>
6.00

$$$$
>  <STRUCTURE SMILES STRING>
COc1ccc(S(=O)(=O)N(C)c2c(C(=O)NO)cnc3c(Br)cccc23)cc1

>  <CENSORING QUALIFIER>
=

>  <pIC50>
6.53

$$$$
>  <STRUCTURE SMILES STRING>
COc1ccc(S(=O)(=O)N(Cc2cccnc2)c2c(C(=O)NO)cnc3cc(C(F)(F)F)ccc23)cc1

>  <CENSORING QUALIFIER>
=

>  <pIC50>
6.00

$$$$
>  <STRUCTURE SMILES STRING>
Cc1nn(C)c2ncc(C(=O)NO)c(N(C)S(=O)(=O)c3ccc(Oc4ccncc4)cc3)c12

>  <CENSORING QUALIFIER>
<

>  <pIC50>
7.00

$$$$
>  <STRUCTURE SMILES STRING>
COc1ccc(S(=O)(=O)N(Cc2cccnc2)c2c(C(=O)NO)cnc3c2cnn3-c2ccccc2)cc1

>  <CENSORING QUALIFIER>
=

>  <pIC50>
6.36

$$$$
>  <STRUCTURE SMILES STRING>
COc1ccc(S(=O)(=O)N(Cc2ccccc2)c2c(C(=O)NO)cnc3cc(Br)ccc23)cc1

>  <CENSORING QUALIFIER>
<

>  <pIC50>
6.00

$$$$
>  <STRUCTURE SMILES STRING>
C=Cc1cccc2c(N(C)S(=O)(=O)c3ccc(OC)cc3)c(C(=O)NO)cnc12

>  <CENSORING QUALIFIER>
=

>  <pIC50>
6.69

$$$$
>  <STRUCTURE SMILES STRING>
COc1ccc(S(=O)(=O)N(Cc2cccnc2)c2c(C(=O)NO)cnc3c(I)cccc23)cc1

>  <CENSORING QUALIFIER>
=

>  <pIC50>
6.91

$$$$
>  <STRUCTURE SMILES STRING>
CN(c1c(C(=O)NO)cnc2ccccc12)S(=O)(=O)c1ccc(Oc2ccncc2)cc1

>  <CENSORING QUALIFIER>
=

>  <pIC50>
6.91

$$$$
